# MEASURED_ON: UniProt:P35228
# TEST_PROTOCOL: iNOS (Human) enzyme assay, radiometric conversion of [3H]L-arginine to [3H]L-citrulline
# Type: biochemical
# ASSAY_CONDITIONS: recombinant human enzyme, 37° C., 45 min
pIC50 for assorted compounds
Please note pIC50 is a logarithmic value: minus log10 of concentration in mol/L. Answer with that number alone.

CN1CC=C(c2c[nH]c3cc(NC(=N)c4cccs4)ccc23)CC1 [Compound 107] | 4.92
CCNC1CC=C(c2c[nH]c3cc(NC(=N)c4cccs4)ccc23)CC1 (centres unmarked) [Compound 132] | 5.71
N=C(Nc1ccc2c(C3CN4CCC3CC4)c[nH]c2c1)c1cccs1 (centres unmarked) [Compound 112] | 6.40

Next compound, pIC50 to be filled in.
Request: What value of pIC50 has been recorded for this entry: CN1CCC(c2c[nH]c3cc(NC(=N)c4cccs4)ccc23)CC1 [Compound 108]
Result: 5.03
